Task for the reader: assign each of the following molecules its reported minimum inhibitory concentration.
System: Mannheimia haemolytica
Test: minimum inhibitory concentration (MIC)
Details: isolate (source animal id): 187

Input: Value lookup for minimum inhibitory concentration; key = `CC1(C)S[C@@H]2[C@H](NC(=O)Cc3ccccc3)C(=O)N2[C@H]1C(=O)O`
Output: > 8 µg/mL

Input: Can you share its minimum inhibitory concentration? I mean this molecule: `NC[C@@H]1O[C@H](O[C@H]2[C@@H](O)[C@H](O[C@@H]3[C@@H](O)[C@H](N)C[C@H](N)[C@H]3O[C@H]3O[C@H](CN)[C@@H](O)[C@H](O)[C@H]3N)O[C@@H]2CO)[C@H](N)[C@@H](O)[C@@H]1O`
Output: > 32 µg/mL

Input: Looking for the measured minimum inhibitory concentration of `CC1(C)S[C@@H]2[C@H](NC(=O)[C@H](N)c3ccccc3)C(=O)N2[C@H]1C(=O)O` , can you help?
Output: > 16 µg/mL

---

Test system: Enterococcus spp.
Assay: minimum inhibitory concentration (MIC)
Conditions: isolate (source animal id): 169
value_type: minimum inhibitory concentration (µg/mL)
Write the number in µg/mL without appending the unit.

Input: Please report the recorded minimum inhibitory concentration for `CCN1CCN(c2cc3c(cc2F)c(=O)c(C(=O)O)cn3C2CC2)CC1` .
Output: 0.5

Input: minimum inhibitory concentration lookup needed for `NC[C@@H]1O[C@H](O[C@H]2[C@@H](O)[C@H](O[C@@H]3[C@@H](O)[C@H](N)C[C@H](N)[C@H]3O[C@H]3O[C@H](CN)[C@@H](O)[C@H](O)[C@H]3N)O[C@@H]2CO)[C@H](N)[C@@H](O)[C@@H]1O` , thanks.
Output: 16

---

Tested on: Pasteurella multocida
Assay: minimum inhibitory concentration (MIC)
Conditions: isolate (source animal id): 140
For each of the molecules below, state its minimum inhibitory concentration.

Input: Dear colleague, I am looking for the recorded minimum inhibitory concentration of the following molecule: `CO/N=C(\C(=O)N[C@@H]1C(=O)N2C(C(=O)O)=C(CSC(=O)c3ccco3)CS[C@H]12)c1csc(N)n1`
Output: ≤ 0.25 µg/mL

Input: Query: minimum inhibitory concentration; subject: `C=C[C@]1(C)C[C@@H](OC(=O)CSCCN(CC)CC)[C@]2(C)[C@H](C)CC[C@]3(CCC(=O)[C@H]32)[C@@H](C)[C@@H]1O`
Output: 32 µg/mL

Input: I'd like to know its minimum inhibitory concentration. The molecule in question is `CC1(C)S[C@@H]2[C@H](NC(=O)[C@H](N)c3ccccc3)C(=O)N2[C@H]1C(=O)O`
Output: ≤ 0.25 µg/mL

Input: I would be grateful if you could share the reported minimum inhibitory concentration for `CC1(C)S[C@@H]2[C@H](NC(=O)Cc3ccccc3)C(=O)N2[C@H]1C(=O)O` .
Output: 0.25 µg/mL

---

System: Histophilus somni
Experiment: minimum inhibitory concentration (MIC)
Settings: isolate (source animal id): 117
Hi there, I'd appreciate the recorded minimum inhibitory concentration for every entry that follows.

Input: Could you tell me which minimum inhibitory concentration is on file for `COc1cc(Cc2cnc(N)nc2N)cc(OC)c1OC.Cc1cc(NS(=O)(=O)c2ccc(N)cc2)no1` ?
Output: > 2 µg/mL

Input: What measured minimum inhibitory concentration goes with `CS(=O)(=O)c1ccc([C@@H](O)[C@@H](CF)NC(=O)C(Cl)Cl)cc1` ?
Output: 0.5 µg/mL

Input: Fill in the blank: the reported minimum inhibitory concentration of `CN(C)[C@@H]1C(O)=C(C(N)=O)C(=O)[C@@]2(O)C(O)=C3C(=O)c4c(O)cccc4[C@@](C)(O)[C@H]3C[C@@H]12` is ____.
Output: 8 µg/mL

Input: Need minimum inhibitory concentration of `CN[C@@H]1[C@H](O)[C@H](NC)[C@H]2O[C@@]3(O)C(=O)C[C@@H](C)O[C@H]3O[C@@H]2[C@H]1O` , thanks.
Output: > 64 µg/mL
